# system-under-test: Multidrug efflux pump subunit AcrB (Escherichia coli (strain K12))
# assay-notes: Inhibition of AcrB in multidrug-resistant Escherichia coli BW25113 assessed as potentiation of erythromycin-induced antibacterial activity by measuring erythromycin MIC at 32 ug/ml by checkerboard titration method (reference value: 64 ug/ml)
# measurement-conditions: dose 32.0 µg/ml
# maps each entry to its MIC

// below: answered compounds
- C=CC(=O)Nc1ccc(COc2cccc3c4c(c(Cn5cnnn5)cc23)CCC(C)(C)O4)cc1: 32 µg/mL
- CC1(C)CC(=O)c2ccc(OCC(=O)Nc3ccc(C#N)c(C(F)(F)F)c3)cc2O1: 64 µg/mL
- COc1cccc(COc2cccc3c4c(c(C(=O)O)cc23)CCC(C)(C)O4)c1: 32 µg/mL
- Cc1ccc(COc2cccc3c4c(c(-c5nnco5)cc23)CCC(C)(C)O4)cc1: 32 µg/mL
- CC1(C)CCc2c(Cn3cnnn3)cc3c(OCc4ccc([N+](=O)[O-])cc4)cccc3c2O1: 64 µg/mL
- COc1cccc(COc2cccc3c4c(c(C(=O)N5CCOCC5)cc23)CCC(C)(C)O4)c1: 32 µg/mL
- Cc1ccccc1COc1cccc2c3c(c(-c4nnco4)cc12)CCC(C)(C)O3: 32 µg/mL
- CC1(C)CCc2c(-c3nnco3)cc3c(OCc4ccc(C#N)cc4)cccc3c2O1: 64 µg/mL
- CC1(C)CCc2c(-c3nnco3)cc3c(OCc4ccc([N+](=O)[O-])cc4)cccc3c2O1: 64 µg/mL

We now examine a further compound.
// query What reported MIC corresponds to "C[C@@H](Cc1ccc(O)c(O)c1)[C@@H](C)Cc1ccc(O)c(O)c1" on Multidrug efflux pump subunit AcrB (Escherichia coli (strain K12))?
// result 64 µg/mL
